test: Measurement of blood concentration of a compound by ex vivo binding assay; conditions: Wistar male rat, oral 10 mg/kg in 0.5% MC, serum 2 hours after administration, read-out: Blood compound concentration (B) 2 hour value
observed_property: concentration at 2 h (nM)

Item: Cc1c(C(=O)C(C(=O)c2cc(F)cc(F)c2)=C2Nc3ccccc3N2)cccc1[C@@H](O)CO | concentration at 2 h: 3740

Lab note: measured concentration at 2 h of Cc1cccc(C(=O)C(C(=O)c2cccc([C@@H](O)CO)c2Cl)=C2Nc3ccccc3N2)c1 was 670

(1) O=C(C(C(=O)c1cccc(C(O)CO)c1)=C1Nc2ccccc2N1)c1cccc(Cl)c1 (stereo not shown)
(2) O=C(C(C(=O)c1cccc([C@@H](O)CO)c1F)=C1Nc2ccccc2N1)c1cc(F)cc(F)c1
Request: For 1 and 2 , which recorded concentration at 2 h is lower? Reply with the label of the item you choose.
Response: 1
